- method: Distribution in plasma, liver and kidney in the aristolochic acid mouse model (repeated i.p.)
- Type: in vivo
- conditions: male, C57BL/6, mouse, plasma, ip, 30 mg/kg, mice, 13a 30 mg/kg b.i.d. i.p. repeated, without AA (Table 6B), 13 h; read-out: Plasma concentration of 13a
endpoint name: concentration at 13 h (ng/mL)
# number only, unit ng/mL dropped from output

**Query** So what's the measured concentration at 13 h for this one? CC(=O)N[C@@H](CCC(=O)NCCNC(=O)OCCN1C(=O)[C@@H](NC(=O)[C@@](C)(O)C(=O)NCC(F)(F)C(F)(F)F)[C@@H](C)Oc2ccc(F)cc21)C(=O)O [Compound 13a]
**Result** 6

====

- method: Pharmacokinetic assessment in male Wistar rats (i.v.)
- Assay type: in vivo, rat
- conditions: rat, kidney, iv, 8 3.5 mg/kg i.v., 7 h, read-out: Kidney concentration of 8
endpoint name: concentration at 7 h (ng/g)
# number only, unit ng/g dropped from output

**Query** So what's the measured concentration at 7 h for this one? C[C@H]1Oc2ccc(F)cc2N(CCO)C(=O)[C@H]1NC(=O)[C@@](C)(O)C(=O)NCC(F)(F)C(F)(F)F
**Result** 92.4

====

- method: Pharmacokinetic assessment in male Wistar rats (i.v.)
- Assay type: in vivo, rat
- conditions: rat, plasma, iv, 8 3.5 mg/kg i.v., 0.25 h, read-out: Plasma concentration of 8
endpoint name: concentration at 0.25 h

**Query** So what's the measured concentration at 0.25 h for this one? C[C@H]1Oc2ccc(F)cc2N(CCO)C(=O)[C@H]1NC(=O)[C@@](C)(O)C(=O)NCC(F)(F)C(F)(F)F
**Result** 964 ng/mL

====

- method: Pharmacokinetic assessment in male Wistar rats (i.v.)
- Format: in vivo, rat
- conditions: rat, liver, intravenous, 13c 1.5 mg/kg i.v., 0.25 h, read-out: Liver concentration of 13c
endpoint name: concentration at 0.25 h (ng/g)
# number only, unit ng/g dropped from output

**Query** So what's the measured concentration at 0.25 h for this one? CC(=O)N[C@@H](CCC(=O)NCCOC(=O)OCCN1C(=O)[C@@H](NC(=O)[C@@](C)(O)C(=O)NCC(F)(F)C(F)(F)F)[C@@H](C)Oc2ccc(F)cc21)C(=O)O [Compound 13c]
**Result** 196
